Reported values of activation factor for individual entries
Test system: alkaline phosphatase, intestinal [Bos taurus]
TEST_SUMMARY: IAP enzyme activity enhancers – biochemical, bovine IAP, CDP-star luminescence, primary screen (AID 1016)
EXPERIMENTAL_CONDITIONS: purified bovine IAP, 30 min, at 20 µM, hits give high values, fold of DMSO-control signal, blank-subtracted
Hit rate of the full screen: of about 200,000 compounds, about 330 (0.17%) were called active. The sample as a whole holds a higher share of actives than the screen did.

[
  {
    "COMPOUND": "CCn1c(C(C)C)n[nH]c1=S",
    "TARGET_ENTITY": "alkaline phosphatase, intestinal [Bos taurus]",
    "activation factor": 0.9
  },
  {
    "COMPOUND": "CCn1c(SCC(=O)Nc2ccc3c(c2)OCCO3)nc2c(c1=O)SC(C)C2 (stereo not given)",
    "TARGET_ENTITY": "alkaline phosphatase, intestinal [Bos taurus]",
    "activation factor": 1
  },
  {
    "COMPOUND": "CC(NC(=O)c1ccc(N2CCNCC2)c([N+](=O)[O-])c1)C12CC3CC(CC(C3)C1)C2 (stereo not given)",
    "TARGET_ENTITY": "alkaline phosphatase, intestinal [Bos taurus]",
    "activation factor": 1.1
  },
  {
    "COMPOUND": "Cc1ccccc1C1=NC(C(F)(F)F)(C(F)(F)F)c2c(n(-c3ccc(F)cc3)c(=O)[nH]c2=O)N1",
    "TARGET_ENTITY": "alkaline phosphatase, intestinal [Bos taurus]",
    "activation factor": 0.9
  },
  {
    "COMPOUND": "CCn1c(SCC(=O)Nc2ccccc2F)nc2c(c1=O)SC(C)C2 (stereo not given)",
    "TARGET_ENTITY": "alkaline phosphatase, intestinal [Bos taurus]",
    "activation factor": 2
  },
  {
    "COMPOUND": "CCN(CC(=O)Nc1ccc(Cl)c(S(=O)(=O)N(C)C)c1)Cc1nc2ccccc2c(=O)[nH]1",
    "TARGET_ENTITY": "alkaline phosphatase, intestinal [Bos taurus]",
    "activation factor": 2.1
  },
  {
    "COMPOUND": "CC(=O)c1ccc(NC(=O)C(C)NCc2ccc(Cl)cc2)cc1 (stereo not given)",
    "TARGET_ENTITY": "alkaline phosphatase, intestinal [Bos taurus]",
    "activation factor": 0.9
  },
  {
    "COMPOUND": "Cc1ccc(S(=O)(=O)N(C)C)cc1NC(=O)/C=C/c1cccs1",
    "TARGET_ENTITY": "alkaline phosphatase, intestinal [Bos taurus]",
    "activation factor": 0.9
  },
  {
    "COMPOUND": "CC(C)C[C@H](NC(=O)Nc1cccc(C(F)(F)F)c1)C(=O)O",
    "TARGET_ENTITY": "alkaline phosphatase, intestinal [Bos taurus]",
    "activation factor": 4.4
  },
  {
    "COMPOUND": "O=[N+]([O-])c1cc(S(=O)(=O)N2CCCC2)ccc1NN=C1CCCC1",
    "TARGET_ENTITY": "alkaline phosphatase, intestinal [Bos taurus]",
    "activation factor": 0.9
  },
  {
    "COMPOUND": "COc1ccc(C(=O)Nc2ccc(NC(=O)C(C)C)nc2)cc1",
    "TARGET_ENTITY": "alkaline phosphatase, intestinal [Bos taurus]",
    "activation factor": 0.9
  },
  {
    "COMPOUND": "NC(=O)COC(=O)c1cc(S(=O)(=O)N2CCN(c3ccccc3)CC2)ccc1Cl",
    "TARGET_ENTITY": "alkaline phosphatase, intestinal [Bos taurus]",
    "activation factor": 1.1
  },
  {
    "COMPOUND": "COc1ccccc1NC1=NC(c2ccc(Cl)cc2)N=C(N)N1 (stereo not given)",
    "TARGET_ENTITY": "alkaline phosphatase, intestinal [Bos taurus]",
    "activation factor": 2.7
  },
  {
    "COMPOUND": "COc1ccc(C(CC(=O)c2ccccc2)S(=O)(=O)c2ccccc2)cc1 (stereo not given)",
    "TARGET_ENTITY": "alkaline phosphatase, intestinal [Bos taurus]",
    "activation factor": 1
  },
  {
    "COMPOUND": "Cc1cc(Br)ccc1SCC(=O)OCC(=O)NCc1ccc2c(c1)OCO2",
    "TARGET_ENTITY": "alkaline phosphatase, intestinal [Bos taurus]",
    "activation factor": 0.8
  },
  {
    "COMPOUND": "Cc1cc2oc(=O)cc(CN3CCN(S(=O)(=O)c4cccs4)CC3)c2cc1C(C)C",
    "TARGET_ENTITY": "alkaline phosphatase, intestinal [Bos taurus]",
    "activation factor": 0.9
  },
  {
    "COMPOUND": "COc1ccc(-c2nc(N)sc2C2(O)C(=O)Nc3c(Br)cc(F)cc32)cc1OC (stereo not given)",
    "TARGET_ENTITY": "alkaline phosphatase, intestinal [Bos taurus]",
    "activation factor": 1
  },
  {
    "COMPOUND": "Cc1cccc(CC(=O)N2CCN=C2SCc2ccc([N+](=O)[O-])cc2)c1",
    "TARGET_ENTITY": "alkaline phosphatase, intestinal [Bos taurus]",
    "activation factor": 0.8
  },
  {
    "COMPOUND": "COc1ccccc1NC1=NC2(CCCC2)N=C(N)N1",
    "TARGET_ENTITY": "alkaline phosphatase, intestinal [Bos taurus]",
    "activation factor": 0.9
  },
  {
    "COMPOUND": "CC1Cc2nc(SCC(=O)Nc3ccccc3F)n(C)c(=O)c2S1 (stereo not given)",
    "TARGET_ENTITY": "alkaline phosphatase, intestinal [Bos taurus]",
    "activation factor": 1.1
  },
  {
    "COMPOUND": "Cc1ccnc(NC(=O)Cn2ccc([N+](=O)[O-])n2)c1",
    "TARGET_ENTITY": "alkaline phosphatase, intestinal [Bos taurus]",
    "activation factor": 1
  },
  {
    "COMPOUND": "S=C(NCc1cccnc1)Nc1ccc(Cl)cc1Cl",
    "TARGET_ENTITY": "alkaline phosphatase, intestinal [Bos taurus]",
    "activation factor": 0.9
  },
  {
    "COMPOUND": "COc1ccc(N2CCN(C(=O)COc3ccc4c(C)cc(=O)oc4c3)CC2)cc1",
    "TARGET_ENTITY": "alkaline phosphatase, intestinal [Bos taurus]",
    "activation factor": 1.1
  },
  {
    "COMPOUND": "O=C(C(=O)N1CCc2ccccc2C1)c1c[nH]c2ccccc12",
    "TARGET_ENTITY": "alkaline phosphatase, intestinal [Bos taurus]",
    "activation factor": 0.9
  },
  {
    "COMPOUND": "N#C/C(=C/c1cccc([N+](=O)[O-])c1)c1nnc2n1CCCCC2",
    "TARGET_ENTITY": "alkaline phosphatase, intestinal [Bos taurus]",
    "activation factor": 0.5
  },
  {
    "COMPOUND": "CC(C)Nc1nnc(SCC(=O)/C=C2\\N(C)c3ccccc3C2(C)C)s1",
    "TARGET_ENTITY": "alkaline phosphatase, intestinal [Bos taurus]",
    "activation factor": 1.1
  },
  {
    "COMPOUND": "Cc1[nH]c2c(C(=O)N3CCCC(CCC(=O)NCc4ccccc4F)C3)cccc2c1C (stereo not given)",
    "TARGET_ENTITY": "alkaline phosphatase, intestinal [Bos taurus]",
    "activation factor": 1.3
  },
  {
    "COMPOUND": "Fc1ccc(CNCc2ccc(Br)cc2)cc1",
    "TARGET_ENTITY": "alkaline phosphatase, intestinal [Bos taurus]",
    "activation factor": 0.9
  },
  {
    "COMPOUND": "CCCCCCCCc1c(O)nc(-n2[nH]c(C)c(CCO)c2=O)[nH]c1=O",
    "TARGET_ENTITY": "alkaline phosphatase, intestinal [Bos taurus]",
    "activation factor": 1.2
  },
  {
    "COMPOUND": "C[C@@H](O)c1nc2ccccc2n1N",
    "TARGET_ENTITY": "alkaline phosphatase, intestinal [Bos taurus]",
    "activation factor": 0.9
  },
  {
    "COMPOUND": "Clc1cccc(CN2COc3c(cc(Cl)c4cccnc34)C2)c1",
    "TARGET_ENTITY": "alkaline phosphatase, intestinal [Bos taurus]",
    "activation factor": 0.8
  },
  {
    "COMPOUND": "CC(=O)N/C(=C/c1ccc(OC(F)F)cc1)C(=O)O",
    "TARGET_ENTITY": "alkaline phosphatase, intestinal [Bos taurus]",
    "activation factor": 1
  },
  {
    "COMPOUND": "COc1cccc(C(=O)Nc2cc3c(cc2Br)OCCCO3)c1",
    "TARGET_ENTITY": "alkaline phosphatase, intestinal [Bos taurus]",
    "activation factor": 1.1
  },
  {
    "COMPOUND": "Cc1ccccc1C(OCCN(C)C)C1CCCCC1 (stereo not given)",
    "TARGET_ENTITY": "alkaline phosphatase, intestinal [Bos taurus]",
    "activation factor": 1.1
  },
  {
    "COMPOUND": "CCOC(=O)CN1CCC(c2ccccc2)CC1",
    "TARGET_ENTITY": "alkaline phosphatase, intestinal [Bos taurus]",
    "activation factor": 1
  },
  {
    "COMPOUND": "CCOc1cc(NC(=S)NCc2ccco2)c(OCC)cc1NC(=O)c1ccco1",
    "TARGET_ENTITY": "alkaline phosphatase, intestinal [Bos taurus]",
    "activation factor": 1
  },
  {
    "COMPOUND": "CCNS(=O)(=O)c1ccc(NC(=O)Nc2cccc(C(F)(F)F)c2)cc1",
    "TARGET_ENTITY": "alkaline phosphatase, intestinal [Bos taurus]",
    "activation factor": 0.6
  },
  {
    "COMPOUND": "CCOC(=O)N1CCN(C(c2cccnc2)c2ccc3cccnc3c2O)CC1 (stereo not given)",
    "TARGET_ENTITY": "alkaline phosphatase, intestinal [Bos taurus]",
    "activation factor": 1.3
  },
  {
    "COMPOUND": "Cc1ccc(NC(=O)c2csc3c2CCCC3)cc1",
    "TARGET_ENTITY": "alkaline phosphatase, intestinal [Bos taurus]",
    "activation factor": 0.9
  },
  {
    "COMPOUND": "CN(C)S(=O)(=O)Oc1ccccc1C(=O)Nc1ccccc1Cl",
    "TARGET_ENTITY": "alkaline phosphatase, intestinal [Bos taurus]",
    "activation factor": 0.9
  },
  {
    "COMPOUND": "Oc1c(C(c2ccccn2)N2CCOCC2)ccc2cccnc12 (stereo not given)",
    "TARGET_ENTITY": "alkaline phosphatase, intestinal [Bos taurus]",
    "activation factor": 2
  },
  {
    "COMPOUND": "Cc1ccc(-n2cnc3ncnc(-c4ccccc4)c32)cc1",
    "TARGET_ENTITY": "alkaline phosphatase, intestinal [Bos taurus]",
    "activation factor": 1.1
  },
  {
    "COMPOUND": "Clc1ccc(-c2nc3ccccn3c2CN2CCSCC2)cc1",
    "TARGET_ENTITY": "alkaline phosphatase, intestinal [Bos taurus]",
    "activation factor": 1
  },
  {
    "COMPOUND": "CC(C)NC(=S)N1CCN(C(c2ccccc2)c2ccccc2)CC1",
    "TARGET_ENTITY": "alkaline phosphatase, intestinal [Bos taurus]",
    "activation factor": 0.9
  },
  {
    "COMPOUND": "CCOC(=O)Cn1c2c(c(-c3ccccc3OC)cc1=O)CCCC2",
    "TARGET_ENTITY": "alkaline phosphatase, intestinal [Bos taurus]",
    "activation factor": 2.1
  }
]
